Data provenance: patent US9657260B2

# test: in vitro
# condition_label: human
assay_endpoint: CC50 (µM)
Just the number please, in µM, no unit attached.

Data request, read-out CC50, for Cc1c(C)c2c(c(C)c1O)CCC(C)(COc1ccc(CC3SC(=O)NC3=O)cc1)O2 (stereo not shown)
300
